// provenance: ChEMBL document CHEMBL3885861

Measured KIDNEY_L by item
- Species: Rattus norvegicus
- experiment_notes: Open TG-GATES - Regimen: Single
- Type: toxicity, organism-based, Sprague-Dawley
- Design: regimen Single, gender Male, age 6 weeks
- condition_details: in vivo, po, 0 mg/kg, 6 h, tissue Kidney, route gavage, dose level Control

[[record]]
compound = "CNC(=C[N+](=O)[O-])NCCSCc1ccc(CN(C)C)o1"
readout_name = "KIDNEY_L"
val = "0.9 g"

[[record]]
compound = "CN/C(=N/CCSCc1nc[nH]c1C)NC#N"
readout_name = "KIDNEY_L"
val = "1 g"

[[record]]
compound = "CS(=O)(=O)O.Cc1ccc(NC(=O)c2ccc(CN3CCN(C)CC3)cc2)cc1Nc1nccc(-c2cccnc2)n1 [IMATINIB MESYLATE]"
readout_name = "KIDNEY_L"
val = "0.8 g"

[[record]]
compound = "CN1C(=O)CCS(=O)(=O)C1c1ccc(Cl)cc1 (centres undefined)"
readout_name = "KIDNEY_L"
val = "0.9 g"

[[record]]
compound = "CCCc1cc(=O)[nH]c(=S)[nH]1"
readout_name = "KIDNEY_L"
val = "0.8 g"

[[record]]
compound = "CN(C)CCC(c1ccc(Cl)cc1)c1ccccn1 (centres undefined)"
readout_name = "KIDNEY_L"
val = "0.9 g"

[[record]]
compound = "Cc1nnc2n1-c1ccc(Cl)cc1C(c1ccccc1Cl)=NC2"
readout_name = "KIDNEY_L"
val = "0.9 g"

[[record]]
compound = "Nc1c2c(nc3ccccc13)CCCC2"
readout_name = "KIDNEY_L"
val = "0.9 g"


// query Requested read-out: KIDNEY_L. Entry: COC(=O)C1=C(C)NC(C)=C(C(=O)OC)C1c1ccccc1[N+](=O)[O-]
// result 0.9 g

// query Requested read-out: KIDNEY_L. Entry: Brc1ccccc1
// result 0.8 g

// query Requested read-out: KIDNEY_L. Entry: CC(C)NNC(=O)c1ccncc1
// result 0.9 g

// query Requested read-out: KIDNEY_L. Entry: O=C(OC[C@H]1O[C@@H](OC(=O)c2cc(O)c(O)c(OC(=O)c3cc(O)c(O)c(O)c3)c2)[C@H](OC(=O)c2cc(O)c(O)c(OC(=O)c3cc(O)c(O)c(O)c3)c2)[C@@H](OC(=O)c2cc(O)c(O)c(OC(=O)c3cc(O)c(O)c(O)c3)c2)[C@@H]1OC(=O)c1cc(O)c(O)c(OC(=O)c2cc(O)c(O)c(O)c2)c1)c1cc(O)c(O)c(OC(=O)c2cc(O)c(O)c(O)c2)c1
// result 0.9 g

// query Requested read-out: KIDNEY_L. Entry: CCOc1ccc(NC(C)=O)cc1
// result 0.9 g

// query Requested read-out: KIDNEY_L. Entry: NC1=NC(=O)C(c2ccccc2)O1 (centres undefined)
// result 0.9 g

====

Measured MCHC by item
- Organism: Rattus norvegicus
- experiment_notes: Open TG-GATES - Regimen: Daily Repeat
- Format: toxicity, organism-based, Sprague-Dawley
- Design: regimen Daily Repeat, gender Male, age 6 weeks
- condition_details: in vivo, po, 100 mg/kg, 72 h, tissue Blood, route gavage, dose level Low, time 3 day
State the answer as a number, implicitly in %.

[[record]]
compound = "CNC(=C[N+](=O)[O-])NCCSCc1ccc(CN(C)C)o1 [RANITIDINE]"
val = 34.2


// query Requested read-out: MCHC. Entry: COC(=O)C1=C(C)NC(C)=C(C(=O)OC)C1c1ccccc1[N+](=O)[O-] [NIFEDIPINE]
// result 32.3

// query Requested read-out: MCHC. Entry: CCOc1ccc(NC(C)=O)cc1 [PHENACETIN]
// result 33

// query Requested read-out: MCHC. Entry: O=C(OC[C@H]1O[C@@H](OC(=O)c2cc(O)c(O)c(OC(=O)c3cc(O)c(O)c(O)c3)c2)[C@H](OC(=O)c2cc(O)c(O)c(OC(=O)c3cc(O)c(O)c(O)c3)c2)[C@@H](OC(=O)c2cc(O)c(O)c(OC(=O)c3cc(O)c(O)c(O)c3)c2)[C@@H]1OC(=O)c1cc(O)c(O)c(OC(=O)c2cc(O)c(O)c(O)c2)c1)c1cc(O)c(O)c(OC(=O)c2cc(O)c(O)c(O)c2)c1 [TANNIC ACID]
// result 33.6

// query Requested read-out: MCHC. Entry: Cc1nnc2n1-c1ccc(Cl)cc1C(c1ccccc1Cl)=NC2 [TRIAZOLAM]
// result 33.7

// query Requested read-out: MCHC. Entry: CN/C(=N/CCSCc1nc[nH]c1C)NC#N [CIMETIDINE]
// result 33.2
